# IC50 values compiled below
# Tested on: NF-κB pathway (SEAP) in THP1-Dual cells
# EXPERIMENTAL_DETAILS: THP-1 Dual cell SEAP assay (L18-MDP stimulated)
# Assay type: cell-based
# CONDITION_LABEL: Homo sapiens, THP1-Dual, read-out: NFkB THP1 IC50
EXPERIMENTAL_READOUT: IC50

[[record]]
compound = "COc1cc2ncc(-c3cc(N)c(F)c(OC)c3)n2cc1S(=O)(=O)C(C)(C)C [Example 43]"
system_tested = "NF-κB pathway (SEAP) in THP1-Dual cells"
experimental_readout = "IC50"
result_value = "50 to 250 nM"

[[record]]
compound = "CCCS(=O)(=O)Nc1cc(-c2cnc3cc(OC)c(S(=O)(=O)C(C)(C)C)cn23)cnc1OC(F)F [Example 286]"
system_tested = "NF-κB pathway (SEAP) in THP1-Dual cells"
experimental_readout = "IC50"
result_value = "> 1000 nM"

[[record]]
compound = "COc1cc2ncc(-c3cccc(NS(=O)(=O)CC(C)C)c3)n2cc1S(=O)(=O)C(C)(C)C [Example 280]"
system_tested = "NF-κB pathway (SEAP) in THP1-Dual cells"
experimental_readout = "IC50"
result_value = "250 to 1000 nM"

[[record]]
compound = "COc1cc2ncc(-c3cc(F)nc(NC(C)C)c3)n2cc1S(=O)(=O)C(C)(C)C [Example 178]"
system_tested = "NF-κB pathway (SEAP) in THP1-Dual cells"
experimental_readout = "IC50"
result_value = "< 50 nM"

[[record]]
compound = "COc1cc2ncc(-c3csnc3OC)n2cc1S(=O)(=O)C(C)(C)C [Example 60]"
system_tested = "NF-κB pathway (SEAP) in THP1-Dual cells"
experimental_readout = "IC50"
result_value = "> 1000 nM"

[[record]]
compound = "COCc1cc(N)cc(-c2cnc3cc(OC)c(S(=O)(=O)C(C)(C)C)cn23)c1 [Example 49]"
system_tested = "NF-κB pathway (SEAP) in THP1-Dual cells"
experimental_readout = "IC50"
result_value = "250 to 1000 nM"

[[record]]
compound = "COc1cc2ncc(-c3cc(C)c(OC)c(NCCCO)c3)n2cc1S(=O)(=O)C(C)(C)C [Example 322]"
system_tested = "NF-κB pathway (SEAP) in THP1-Dual cells"
experimental_readout = "IC50"
result_value = "> 1000 nM"

[[record]]
compound = "COc1cc2ncc(-c3cc(F)c(OC)c(OCCO)c3)n2cc1S(=O)(=O)C(C)(C)C [Example 338]"
system_tested = "NF-κB pathway (SEAP) in THP1-Dual cells"
experimental_readout = "IC50"
result_value = "> 1000 nM"

[[record]]
compound = "COc1cc2ncc(-c3cc(N)cc(F)c3)n2cc1S(=O)(=O)C(C)(C)C [Example 157]"
system_tested = "NF-κB pathway (SEAP) in THP1-Dual cells"
experimental_readout = "IC50"
result_value = "50 to 250 nM"

[[record]]
compound = "CCCS(=O)(=O)Nc1cc(-c2cnc3cc(OC)c(C(C)(C)O)cn23)cc(F)c1OC [Example 146]"
system_tested = "NF-κB pathway (SEAP) in THP1-Dual cells"
experimental_readout = "IC50"
result_value = "50 to 250 nM"


====

# SYSTEM_TESTED: GST-RIPK2 fusion protein (human RIPK2 amino acids 1-310) (Homo sapiens (Human), UniProt O43353)
# Sequence (O43353 1-310): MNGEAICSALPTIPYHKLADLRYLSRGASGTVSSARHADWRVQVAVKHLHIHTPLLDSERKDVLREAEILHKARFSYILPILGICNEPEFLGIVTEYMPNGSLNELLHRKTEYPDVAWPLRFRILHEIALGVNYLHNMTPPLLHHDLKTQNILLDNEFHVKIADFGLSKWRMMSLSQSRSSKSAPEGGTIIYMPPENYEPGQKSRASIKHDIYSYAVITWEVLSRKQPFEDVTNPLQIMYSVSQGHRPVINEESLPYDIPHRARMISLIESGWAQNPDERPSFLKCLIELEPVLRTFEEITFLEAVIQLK
# EXPERIMENTAL_DETAILS: RIPK2 binding competition assay (TR-FRET, Tracer 199)
# CONDITION_LABEL: read-out: RIPK2 IC50; RIPK2 binding competition assay
pIC50: −log10 of the molar value.
EXPERIMENTAL_READOUT: pIC50

[[record]]
compound = "CCCS(=O)(=O)Nc1ccc(-c2cnc3cc(OC)c(S(=O)(=O)C(C)(C)C)cn23)cc1OC(F)F [Example 293]"
result_value = "< 7.70"

[[record]]
compound = "COc1cc2ncc(-c3ccc(OC)c(N)n3)n2cc1S(=O)(=O)C(C)(C)C [Example 336]"
result_value = "< 7.70"

[[record]]
compound = "COc1cc2ncc(-c3ccc(O)nc3)n2cc1S(=O)(=O)C(C)(C)C [Example 150]"
result_value = "< 7.70"

[[record]]
compound = "COc1cc2ncc(-c3cccc(S(C)(=O)=O)c3)n2cc1S(=O)(=O)C(C)(C)C [Example 151]"
result_value = "< 7.70"

[[record]]
compound = "COc1cc2ncc(-c3cc(F)nc(N(C)C)c3)n2cc1S(=O)(=O)C(C)(C)C [Example 186]"
result_value = "> 9.00"

[[record]]
compound = "COc1cc2ncc(-c3ccc(NS(C)(=O)=O)nc3)n2cc1S(=O)(=O)C(C)(C)C [Example 148]"
result_value = "< 7.70"

[[record]]
compound = "COc1cc2ncc(-c3ccc(N)nc3Cl)n2cc1S(=O)(=O)C(C)(C)C [Example 99]"
result_value = "< 7.70"

[[record]]
compound = "COc1cc2ncc(-c3ccc(S(N)(=O)=O)cc3)n2cc1S(=O)(=O)C(C)(C)C [Example 152]"
result_value = "< 7.70"

[[record]]
compound = "COc1cc2ncc(-c3ccc(N)c(OC)c3F)n2cc1S(=O)(=O)C(C)(C)C [Example 76]"
result_value = "< 7.70"

[[record]]
compound = "COc1cc2ncc(-c3cc(F)nc(NCCC4(O)CC4)c3)n2cc1S(=O)(=O)C(C)(C)C [Example 198]"
result_value = "> 9.00"

[[record]]
compound = "COc1ccc(-c2cnc3cc(OC)c(S(=O)(=O)C4CC4)cn23)cc1N [Example 33]"
result_value = "< 7.70"

[[record]]
compound = "COc1cc2ncc(-c3cc(NS(C)(=O)=O)c(OC)c(OC)c3)n2cc1S(=O)(=O)C(C)(C)C [Example 285]"
result_value = "> 9.00"

[[record]]
compound = "COc1cc2ncc(-c3cnc(N)c(N)c3)n2cc1S(=O)(=O)C(C)(C)C [Example 31]"
result_value = "< 7.70"

[[record]]
compound = "COc1cc2ncc(-c3cc(F)nc(NCCCC(C)(C)O)c3)n2cc1S(=O)(=O)C(C)(C)C [Example 182]"
result_value = "> 9.00"

[[record]]
compound = "CNc1cc(-c2cnc3cc(OC)c(S(=O)(=O)C(C)(C)C)cn23)cc(F)n1 [Example 179]"
result_value = "> 9.00"

[[record]]
compound = "COc1cc2ncc(-c3cnc(N)cc3F)n2cc1S(=O)(=O)C(C)(C)C [Example 21]"
result_value = "< 7.70"

[[record]]
compound = "COc1cc2ncc(-c3cc(F)nc(N[C@H]4C[C@H](O)C4)c3)n2cc1S(=O)(=O)C(C)(C)C [Example 193]"
result_value = "> 9.00"

[[record]]
compound = "COc1cc2ncc(-c3cnc(N)c(OC(F)(F)F)c3)n2cc1S(=O)(=O)C(C)(C)C [Example 88]"
result_value = "< 7.70"

[[record]]
compound = "CCCS(=O)(=O)Nc1nc(-c2cnc3cc(OC)c(S(=O)(=O)C(C)(C)C)cn23)ccc1C [Example 163]"
result_value = "< 7.70"

[[record]]
compound = "CCOc1cc2ncc(-c3cc(F)nc(NCCCO)c3)n2cc1S(=O)(=O)C(C)C [Example 243]"
result_value = "> 9.00"

[[record]]
compound = "COc1cc2ncc(-c3cc(F)cc(F)n3)n2cc1S(=O)(=O)C(C)(C)C [Example 61]"
result_value = "< 7.70"

[[record]]
compound = "COc1cc2ncc(-c3cc(F)c(N)nc3OC(C)C)n2cc1S(=O)(=O)C(C)(C)C [Example 113]"
result_value = "< 7.70"

[[record]]
compound = "CCOc1cc2ncc(-c3ccc(N)nc3F)n2cc1S(=O)(=O)C(C)C [Example 120]"
result_value = "< 7.70"

[[record]]
compound = "COc1cc2ncc(-c3cnc(N)c(CO)c3)n2cc1S(=O)(=O)C(C)(C)C [Example 92]"
result_value = "< 7.70"

[[record]]
compound = "COc1cc2ncc(-c3cc(F)nc(NC4CC4)c3)n2cc1S(=O)(=O)C(C)(C)C [Example 177]"
result_value = "> 9.00"

[[record]]
compound = "COc1cc2ncc(-c3cnc(N)c(F)c3)n2cc1S(=O)(=O)C(C)(C)C [Example 73]"
result_value = "< 7.70"

[[record]]
compound = "COc1cc2ncc(-c3cnc(N)c(OC)c3)n2cc1S(=O)(=O)C(C)(C)C [Example 17]"
result_value = "< 7.70"

[[record]]
compound = "COc1cc2ncc(-c3cc(F)nc(NC[C@H](F)CO)c3)n2cc1S(=O)(=O)C(C)(C)C [Example 231]"
result_value = "> 9.00"

[[record]]
compound = "COc1cc2ncc(-c3cccc(S(N)(=O)=O)c3)n2cc1S(=O)(=O)C(C)(C)C [Example 153]"
result_value = "< 7.70"

